Below, each of the compounds is paired with its reported pEC50 value.
# Test system: HIV Selected In Vitro by the Compound of Example 2B
# measurementNotes: microbe, parasite or virus in culture
# Type: cell-based
# conditionDetails: Human immunodeficiency virus 1, Virus P11
pEC50 field: float, defined as -log10 of concentration (mol/L).

// worked examples, pEC50 included
# input // map CC(C)c1nc(CN(C)C(=O)N[C@H](C(=O)N[C@@H](Cc2ccccc2)C[C@H](O)[C@H](Cc2ccccc2)NC(=O)OCc2cncs2)C(C)C)cs1 [Ritonavir] to recorded pEC50 (system: HIV Selected In Vitro by the Compound of Example 2B)
# output 6.32

# input Also Cc1cccc(C)c1OCC(=O)N[C@@H](Cc1ccccc1)[C@@H](O)C[C@H](Cc1ccccc1)NC(=O)[C@H](C(C)C)N1CCCNC1=O [Example 2B] , if possible.
# output 6.46

# input Also CC(C)(C)NC(=O)[C@@H]1CN(Cc2cccnc2)CCN1C[C@@H](O)C[C@@H](Cc1ccccc1)C(=O)N[C@H]1c2ccccc2C[C@H]1O [Indinavir] , if possible.
# output 6.82

More entries:
# input // map CC(C)(C)NC(=O)[C@@H]1C[C@@H]2CCCC[C@@H]2CN1C[C@@H](O)[C@H](Cc1ccccc1)NC(=O)[C@H](CC(N)=O)NC(=O)c1ccc2ccccc2n1 [Saquinavir] to recorded pEC50 (system: HIV Selected In Vitro by the Compound of Example 2B)
# output 7.24

###

# System: HIVIIIB
# measurementNotes: Antiviral activity (anti-HIV activity) in MT4 cells, MTT readout
# Format: cell-based
# conditionDetails: Human immunodeficiency virus 1, MT4, 120 h, read-out: IC50 (µM, 0% plasma)
quantityMeasured: IC50 (µM)
Respond with the bare value in µM.

# input So what does the record say about IC50 for Cc1cccc(C)c1CCC(=O)N[C@@H](Cc1ccccc1)[C@@H](O)C[C@H](Cc1ccccc1)NC(=O)[C@H](C(C)C)N1CCCNC1=O [Example 20D] ?
# output 0.283

# input Also `CC(C)[C@@H](C(=O)N[C@@H](Cc1ccccc1)C[C@H](O)[C@H](Cc1ccccc1)NC(=O)O[C@H]1CO[C@H]2OCC[C@H]21)N1CCN(C)C1=O` , if possible.
# output 0.101

# input Also `Cc1cccc(C)c1OCC(=O)N[C@@H](Cc1ccccc1)[C@@H](O)C[C@H](NC(=O)[C@H](C(C)C)N1CCC(=O)NC1=O)C(C)C` , if possible.
# output 0.011

# input Also Cc1ccnc(C)c1OCC(=O)N[C@@H](Cc1ccccc1)[C@@H](O)C[C@H](Cc1ccccc1)NC(=O)[C@@H](N1CCNC1=O)C(C)(C)C [Example 14D] , if possible.
# output 0.053

# input Also `CC(C)(C)[C@@H](C(=O)N[C@@H](Cc1ccccc1)C[C@H](O)[C@H](Cc1ccccc1)NC(=O)OCc1cncs1)N1CCNC1=O` , if possible.
# output 0.204

More entries:
# input So what does the record say about IC50 for `Cc1cccc(C)c1OCC(=O)N[C@@H](Cc1ccccc1)[C@@H](O)C[C@H](Cc1ccccc1)NC(=O)[C@@H](N1CCNC1=O)C(C)(C)C` ?
# output 0.019

# input Also `Cc1cccc(C)c1OCC(=O)N[C@@H](Cc1ccccc1)[C@@H](O)C[C@H](Cc1ccccc1)NC(=O)[C@H](C(C)C)N1CCNC1=S` , if possible.
# output 0.272

###

# System: HIVIIIB
# measurementNotes: Antiviral activity (anti-HIV activity) in MT4 cells, MTT readout
# Assay type: cell-based
# conditionDetails: Human immunodeficiency virus 1, MT4, 120 h, read-out: IC50 (µM, 0% plasma)
Decision: IC50 beneath 0.05 µM gives 1; IC50 meeting or exceeding 0.05 µM gives -1.

Worked set:
# input I'd appreciate it if you could check whether Cc1cccc(C)c1OCC(=O)N[C@@H](Cc1ccccc1)[C@@H](O)C[C@H](Cc1ccccc1)NC(=O)[C@H](C(C)C)N1CCNNC1=O [Example 26H] has IC50 smaller than 0.05 µM.
# output 1

# input Also Cc1cccc(C)c1OCC(=O)N[C@@H](Cc1ccccc1)[C@@H](O)C[C@H](NC(=O)[C@H](C(C)C)N1CCCNC1=O)C(C)C [Example 27D] , if possible.
# output 1

More entries:
# input I'd appreciate it if you could check whether Cc1cc(N)cc(C)c1OCC(=O)N[C@@H](Cc1ccccc1)[C@@H](O)C[C@H](Cc1ccccc1)NC(=O)[C@H](C(C)C)N1CCNC1=O [Example 10F] has IC50 smaller than 0.05 µM.
# output 1

# input Also Cc1cc(C)c(OCC(=O)N[C@@H](Cc2ccccc2)[C@@H](O)C[C@H](Cc2ccccc2)NC(=O)[C@H](C(C)C)N2CCNC2=O)c(C)c1 [Example 11B] , if possible.
# output -1

###

# testTarget: HIV protease (Human immunodeficiency virus type 1 group M subtype B)
# Construct: HIV protease consists of two identical subunits, each of which has 99 amino acid residues
# measurementNotes: Fluorogenic Assay for Screening Inhibitors of HIV Protease
# Assay type: biochemical
# conditionDetails: Inhibitor Concentration 0.5 nanomolar; read-out: Percent Inhibition
# Description: The inhibitory potency of the compound of the invention can be determined by the following method. The compound of the invention is dissolved in DMSO and a small aliquot further diluted with DMSO to 100 times the final concentration desired for testing. […] The fluorescence intensity (excitation 340 nm, emmision 490 nM) is recorded as a function of time. The reaction rate is determined for the first six to eight minutes. […]
// label = Met if inhibition at 0.0005 µM is not less than 60%, otherwise Not met

Worked set:
# input hey, is inhibition at 0.0005 µM for this one >= 60%? Cc1cccc(C)c1OCC(=O)N[C@@H](Cc1ccccc1)[C@@H](O)C[C@H](Cc1ccccc1)NC(=O)[C@H](C(C)C)N1CCOC1=O [Example 3C]
# output Met

# input Also CC(C)[C@@H](C(=O)N[C@@H](Cc1ccccc1)C[C@H](O)[C@H](Cc1ccccc1)NC(=O)O[C@H]1CO[C@H]2OCC[C@H]21)N1CCNC1=O [Example 5] , if possible.
# output Met

# input Also Cc1cccc(C)c1/C=C/C(=O)N[C@@H](Cc1ccccc1)[C@@H](O)C[C@H](Cc1ccccc1)NC(=O)[C@H](C(C)C)N1CCCNC1=O [Example 19E] , if possible.
# output Met

API: the following record is the query input.
# input hey, is inhibition at 0.0005 µM for this one >= 60%? CC(C)[C@@H](C(=O)N[C@@H](Cc1ccccc1)C[C@H](O)[C@H](Cc1ccccc1)NC(=O)O[C@H]1CO[C@H]2OCC[C@H]21)N1CCN(C)C1=O [Example 4F]
# output Not met

###

# testTarget: HIV protease (Human immunodeficiency virus type 1 group M subtype B, UniProt P04585)
# Construct: HIV protease consists of two identical subunits, each of which has 99 amino acid residues
# measurementNotes: Fluorogenic Assay for Screening Inhibitors of HIV Protease
# Format: biochemical
# conditionDetails: Inhibitor Concentration 0.5 nanomolar; read-out: Percent Inhibition
quantityMeasured: inhibition at 0.0005 µM (%)
Respond with the bare value in %.

// worked examples, inhibition at 0.0005 µM included
# input So what does the record say about inhibition at 0.0005 µM for `CC(C)[C@@H](C(=O)N[C@@H](Cc1ccccc1)C[C@H](O)[C@H](Cc1ccccc1)NC(=O)OCc1cncs1)N1CCNC1=O` ?
# output 61.4

# input Also Cc1cccc(C)c1OCC(=O)N[C@@H](Cc1ccccc1)[C@@H](O)C[C@H](Cc1ccccc1)NC(=O)[C@H](C(C)C)N1CCNNC1=O [Example 26H] , if possible.
# output 94.6

# input Also Cc1ccnc(C)c1OCC(=O)N[C@@H](Cc1ccccc1)[C@@H](O)C[C@H](Cc1ccccc1)NC(=O)[C@@H](N1CCNC1=O)C(C)(C)C [Example 14D] , if possible.
# output 52.7

# input Also Cc1cccc(C)c1OCC(=O)N[C@@H](Cc1ccccc1)[C@@H](O)C[C@H](Cc1ccccc1)NC(=O)[C@H](C(C)C)n1ccc(=O)[nH]c1=O [Example 23C] , if possible.
# output 86

# input Also Cc1cc(C)c(OCC(=O)N[C@@H](Cc2ccccc2)[C@@H](O)C[C@H](Cc2ccccc2)NC(=O)[C@H](C(C)C)N2CCNC2=O)c(C)c1 [Example 11B] , if possible.
# output 91.1

More entries:
# input So what does the record say about inhibition at 0.0005 µM for Cc1cccc(C)c1OCC(=O)N[C@@H](Cc1ccccc1)[C@@H](O)C[C@H](Cc1ccccc1)NC(=O)[C@H](C(C)C)N1CC=NNC1=O [Example 30B] ?
# output 91

# input Also `Cc1cccc(C)c1OCC(=O)N[C@@H](Cc1ccccc1)[C@@H](O)C[C@H](Cc1ccccc1)NC(=O)[C@@H](N1CCNC1=O)C(C)(C)C` , if possible.
# output 55.6

# input Also `Cc1ccnc(C)c1OCC(=O)N[C@@H](Cc1ccccc1)[C@@H](O)C[C@H](Cc1ccccc1)NC(=O)[C@H](C(C)C)N1CCNC1=O` , if possible.
# output 48

# input Also `Cc1cccc(C)c1OCC(=O)N[C@@H](Cc1ccccc1)[C@@H](O)C[C@H](NC(=O)[C@H](C(C)C)N1CCC(=O)NC1=O)C(C)C` , if possible.
# output 86.6

# input Also Cc1cc(N)cc(C)c1OCC(=O)N[C@@H](Cc1ccccc1)[C@@H](O)C[C@H](Cc1ccccc1)NC(=O)[C@H](C(C)C)N1CCNC1=O [Example 10F] , if possible.
# output 81

# input Also Cc1cccc(C)c1OCC(=O)N[C@@H](Cc1ccccc1)[C@@H](O)C[C@H](Cc1ccccc1)NC(=O)[C@H](C(C)C)N1C(=O)CCC1=O [Example 18C] , if possible.
# output 57.8

# input Also Cc1cccc(C)c1OCC(=O)N[C@@H](Cc1ccccc1)[C@@H](O)C[C@H](Cc1ccccc1)NC(=O)[C@H](C(C)C)N1CCNC(=O)C1=O [Example 29C] , if possible.
# output 72.6

# input Also `Cc1cccc(C)c1OCC(=O)N[C@@H](Cc1ccccc1)[C@@H](O)C[C@H](Cc1ccccc1)NC(=O)[C@H](C(C)C)N1CCNC1=S` , if possible.
# output 62.6
